Tested on: NCI-H460 lung
Test: NCI-60 one-dose screen, 48 h
Conditions: 10 µM unless noted
Compounds without any hit were thinned out: in the full panel of roughly 83,000, 20% have a hit. Active and inactive are the calls of the source. The calls were made as follows: active = growth percent below 10; inactive = the rest.
Write down the outcome that applies. Available outcomes: 1 for active, 0 for inactive

COc1cc(-c2nccc3[nH]c(-c4ccc5cc[nH]c5c4)nc23)cc(OC)c1OC :: 1
COc1ccc(C/C(C)=C(/c2ccc(OCCN(C)C)cc2)c2ccc(OC(=O)NCc3ccccc3)cc2)cc1 :: 0
CC(C)Cn1cnc2c(=O)[nH]c(N)nc21 :: 0
C#CCNC(=O)[C@H](CC)[C@H]1CC[C@H](C)[C@H]([C@@H](C)[C@H](O)[C@H](C)C(=O)[C@H](CC)C2O[C@]3(C=CC(=O)[C@]4(CC[C@@](C)([C@H]5CC[C@](O)(CC)[C@H](C)O5)O4)O3)[C@H](C)C[C@@H]2C)O1 (some centres undefined) :: 0
Nc1c(C(=O)Nc2ccncc2)sc2nc3c(cc12)C(O)CCC3 (centres undefined) :: 0
N#Cc1nc(-c2ccc(Cl)cc2)oc1S(=O)(=O)N1CCN(c2ccc(F)cc2)CC1 :: 0
COc1ccc(C(=O)N2c3ccccc3Sc3ccccc32)c(OC)c1 :: 1
CSc1nnc(-c2cc3c([nH]c4ccccc43)c(-c3cccc(O)c3)n2)n1-c1ccccc1 :: 0

Ask: # fetch the recorded call for Ic1ccc(OCCCCn2ccnc2)cc1 here
Reply: 0

---

System: EKVX NSCLC
Assay: NCI-60 one-dose screen, 48 h (100 = growth as untreated, 0 = no growth, -100 = all killed)
Details: 10 µM unless noted
This is part of a sample that, as a whole, favours compounds with a hit. Of some 83,000 tested, about 20% had one in any assay.
measurement-label: growth (%)
Report only the number, with the unit % understood.

Would you please look over these solved cases?
Nc1n[nH]c2ccc([C@H]3[C@@H]4C5CCC(C5)[C@@H]4c4c(ccc5[nH]ncc45)N3S(=O)(=O)C3CC3)cc12 (stereo not given in full) :: 29.8
O=C(OC(CO)C(=O)NC12CC3CC(CC(C3)C1)C2)c1ccc(Cl)cc1 (stereo not given) :: 96.9
COc1cc2c(c(OC)c1OC)CCC(c1cccc(C(=O)Nc3cccc(Cl)c3)c1)O2 (stereo not given) :: 64.2
COc1ccc(C(C)=O)cc1S(=O)(=O)Nc1c(N)nc(SC)[nH]c1=O :: 101
N#CSCC1CC(O)(c2ccccc2)CC(c2ccc(F)cc2)O1 (stereo not given) :: 34.2

The molecule listed as CC(C)(Sc1cc(C(C)(C)C)c(OC(=O)CCCC(=O)O)c(C(C)(C)C)c1)Sc1cc(C(C)(C)C)c(OC(=O)CCCC(=O)O)c(C(C)(C)C)c1 shows growth equal to 47.2

Per the record, COc1cc(-c2nc3sccn3c2-c2ccnc(NCCNS(=O)(=O)c3ccccc3)n2)ccc1F has growth of 61.5

COc1ccc(OC)c(/C=N/Nc2ncnc3c2c(C)nn3C)c1 has a reported growth of 94.8

Entry CCO/C=N/C1=C(C#N)C(c2ccc(Cl)cc2)c2sc3c(F)cccc3c2O1 (stereo not given) , growth reported as 75.7

Looking up OCCn1cc(-c2nc(-c3c[nH]c4ncccc34)cs2)c2cc(F)ccc21 , I found its growth recorded as 37.2

Lab note: measured growth of Cc1cc(C(=O)O)c(C)n1-c1cccc(C(=O)O)c1 was 98.5

The molecule listed as O=S(=O)(NCCNc1nccc(-c2c(-c3ccc(F)c(O)c3)nc3occn23)n1)c1ccc(Cl)cc1 has a reported growth of 104

Query O=C(Nc1cccc(Cl)c1)Nc1cccc(Cn2c(=O)[nH]c3ccc(Oc4ncccn4)cc3c2=O)c1 yields growth of 72.4

// growth value for c1ccc2cc(C[n+]3ccn(CCCCCCCCCCn4cc[n+](Cc5ccc6ccccc6c5)c4)c3)ccc2c1 : 13.7

Please fill in: growth reported for NC(=O)c1cc(I)ccc1NC(=O)/C=C/c1ccccc1 = 36.1

The measured growth associated with CN1CCN(c2cc(Nc3cc(C4CC4)[nH]n3)nc(Nc3ccc(CC(=O)NCc4cccc(F)c4)cc3)n2)CC1 reads 50.3

Entry Cc1ccc(NC(=O)c2sc3nc(C)c(Br)c(C)c3c2N)cc1 — recorded growth = 61.9

Record O=C(NCCCl)Nc1ncccc1OCc1ccccc1 . Reported growth: 98.9

For reference, reported growth for N#Cc1ccc(O)c(C2=NCC(c3ccccc3)O2)c1 (stereo not given) stands at 37.1

The molecule listed as Cc1ccc(NC(=O)Cn2cc(CN3CCN(c4ccnc5cc(Cl)ccc45)CC3)nn2)cc1 has a reported growth of 80.7

---

Tested on: TK-10 renal
Experiment: NCI-60 one-dose screen, 48 h (100 = growth as untreated, 0 = no growth, -100 = all killed)
Conditions: 10 µM unless noted
Experimental: Growth inhibition of the TK-10 human tumor cell line is measured as a screen for anti-cancer activity. Cells are grown in 96 well plates and exposed to the test compound for 48 hours. Compounds are tested at a single concentration, which is 10^-5 M for most compounds. The reported endpoint is percent growth (GI% or GIPRCNT), where numbers from 0 - 100% represent growth inhibition, and numbers from -100% - 0 represent cell death. For example, a value of 40 represents 60% growth inhibition. […]
This is part of a sample that, as a whole, favours compounds with a hit. Of some 83,000 tested, about 20% had one in any assay.
Measured growth accompanies every entry in the list below.
Output spec: scalar in %, unitless text.

Below, 5 compounds whose answers are already recorded.
O=C1NC2(Nc3ccccc31)C(=O)Nc1c(Cl)cc(Cl)cc12 (configuration not stated) :: 206
O=C(Nc1nc2cc(C(=O)N3CCN(C(c4ccccc4)c4ccccc4)CC3)ccc2o1)c1ccc(NC2CCCCC2)c([N+](=O)[O-])c1 :: 84.5
COc1ccc(-c2nn(-c3cccc(Cl)c3)cc2-c2cc(-c3ccc(Br)cc3)nc(N)n2)cc1 :: 104
COC(=O)c1c2c(c(C)[n+]([O-])c1C)C(=O)C(NCc1cccc(OC)c1)=CC2=O :: 104
Nc1ncc(-c2ccc3ncnc(Nc4cccc(Cl)c4)c3c2)cn1 :: -14.8

The value of growth measured for the compound O=C(Nc1cccc(Cl)c1)Nc1cccc(Cn2c(=O)[nH]c3ccc(Oc4ncccn4)cc3c2=O)c1 turned out to be 68.9

Input COc1ccc(Nc2ncc(Br)c(NCCCNC(=O)C3CCCC3)n2)cc1 . Output growth: 23.3

Looking up CN1C(=O)/C(=C\c2nc([P+](c3ccccc3)(c3ccccc3)c3ccccc3)c(N3CCOCC3)o2)SC1=S , I see its growth listed as 106

The compound Nc1cc(C(=O)NC[C@H]2CN(c3ccc(N4CCC(C(=O)O)CC4)cc3)C(=O)O2)ccc1Cl showed growth equal to 104

The value of growth measured for the compound COC(=O)c1c(C)c2n(c1C)C(=O)C(c1ccccc1)=C2 turned out to be 143

Looking up CCCCCCC12CCC(=O)N1CCc1cncn12 (configuration not stated) , I found its growth recorded as 92.5

Value of growth reported for the compound Cc1cc(N2CCN(CC(=O)Nc3ccc4c(ccn4C)c3)CC2)nc(N2CCCCCC2)n1 is 87.2

Memo: CCOc1nc(-c2ccccc2)cc2c(O)c(C(=O)N/N=C/c3ccccc3)[nH]c(=O)c12 , reported growth: 151

Short answer for COC(CC(F)F)c1cn(S(=O)(=O)c2ccc(C)cc2)c2ccccc12 (configuration not stated) : growth was 59.3

growth reading for O=C(N/N=C/c1ccc(Cl)cc1)c1[nH]c2ccc(Cl)cc2c1-c1ccccc1 : 51.8

Entry under test: CCOC(=O)n1cc(-c2nonc2-c2cn(C(=O)OCC)c3ccc(Br)cc23)c2ccccc21 . Its growth was 90.8

---

Tested on: ACHN renal
Test: NCI-60 one-dose screen, 48 h
Conditions: 10 µM unless noted
Compounds without any hit were thinned out: in the full panel of roughly 83,000, 20% have a hit. Active and inactive are the calls of the source. The calls were made as follows: active = growth percent below 10; inactive = the rest.
Write down one outcome, taken from active, inactive

Cn1cc(C(=O)c2nc(-c3c[nH]c4ccccc34)no2)c2cc(F)ccc21 :: inactive

Ask: Write down the call the test reported for this compound. Item: c1ccc(Cn2cc3c(c2)-c2oncc2CC3)cc1
Reply: inactive

Ask: Short answer needed: outcome of this test for O=S(=O)(Nc1cc(F)cc(Cl)c1)c1ccc(-c2cnc(C3CC3)o2)cc1 ?
Reply: inactive

Ask: Write down the call the test reported for this compound. Item: NC(=O)c1c(NC(=O)c2ccc3ccccc3c2)sc2c1CCC(=O)C2
Reply: inactive

Ask: Which outcome was assigned to [O-]/[N+](=C\c1ccc(-n2cc(Cc3ccccc3Cc3cn(-c4ccc(/C=[N+](/[O-])c5ccccc5)cc4)nn3)nn2)cc1)c1ccccc1 in this test?
Reply: inactive

Ask: Hello, I am checking results. What call was entered for O=C(CN1CCOCC1)Nc1nc(-c2cc3ccccc3oc2=O)cs1 ?
Reply: inactive

Ask: I would be grateful if you could indicate the recorded call for CCCCNCCCCCNc1cc(OC)cc2cccnc12 .
Reply: inactive

Ask: Per the assay record, what outcome was assigned to N#Cc1nc(-c2ccccc2)oc1S(=O)(=O)N1CCN(c2ccccc2)CC1 ?
Reply: inactive

Ask: How did this test come out for COc1ccc2cc1Oc1ccc(cc1)C[C@H]1c3c(cc4c(c3Oc3cc5c(cc3OC)CCN(C)[C@@H]5C2)OCO4)CCN1C ?
Reply: inactive

Ask: Lab log entry: COc1cc2oc(-c3cccc(NC(=O)c4ccccc4)c3)cc(=O)c2c(OC)c1OC — outcome as called in the assay?
Reply: inactive

Ask: Hi, do you know how Cc1ccc(-c2nc(N3CCCNCC3)c3oc(-c4ccccc4)nc3n2)cc1 came out in this test?
Reply: active

Ask: Assay result, entry CC(=O)Oc1ccc(C)cc1C — outcome?
Reply: inactive

Ask: In this assay, the call recorded for CC(C)=CCC[C@](C)(O)[C@H]1CC[C@]2(C)[C@@H]1CC[C@@H]1[C@@]3(C)C/C(=C/c4ccco4)C(=O)C(C)(C)[C@@H]3CC[C@]12C was what?
Reply: inactive

Ask: Could you kindly confirm the outcome this assay logged for c1ccc(-c2oc(-c3ccccc3)c(CN3CCCCC3)c2CN2CCCCC2)cc1 ?
Reply: inactive

Ask: # fetch the recorded call for CCOC(=O)c1c(NC(=O)c2cccc(C(F)(F)F)c2)sc2c(CN(C)C)c(O)ccc12 here
Reply: inactive
